- procedure_summary: Active ingredient assay and recovery on storage (Table 2)
- Assay type: physicochemical
- conditions_used: 1 month storage, T/C
quantity_measured: Assay (% w/w)

{"compound": "CCCCCC(C)OC(=O)COc1ccc(Cl)c2cccnc12 (centres unmarked)", "readout_unit": "% w/w", "observed_value": 0.41}
{"compound": "CCCCCCC(C)OC(=O)COc1nc(F)c(Cl)c(N)c1Cl (centres unmarked)", "readout_unit": "% w/w", "observed_value": 11.52}
{"compound": "CCCCCCCC(=O)Oc1c(Br)cc(C#N)cc1Br [Bromoxynil, Bromoxynil Octanoate]", "readout_unit": "% w/w", "observed_value": 31.27}
{"compound": "CCCCC(CC)COC(=O)COc1ccc(Cl)cc1C (centres unmarked)", "readout_unit": "% w/w", "observed_value": 34.68}
{"compound": "COc1nn(C(=O)[N-]S(=O)(=O)c2ccccc2OC(F)(F)F)c(=O)n1C.[Na+] [Flucarbazone, Flucarbazone Sodium]", "readout_unit": "% w/w", "observed_value": 1.90}

----------
- procedure_summary: Active ingredient assay on storage, SCB239-12 (Table 3)
- Assay type: physicochemical
- conditions_used: 2 wks, 54° C.
quantity_measured: Recovery of active ingredient (% of initial assay) (% w/w)

{"molecule": "CCCCCCC(C)OC(=O)COc1nc(F)c(Cl)c(N)c1Cl (centres unmarked)", "observed_value": 99.48}
{"molecule": "CCCCCC(C)OC(=O)COc1ccc(Cl)c2cccnc12 (centres unmarked)", "observed_value": 100.70}
{"molecule": "CCCCC(CC)COC(=O)COc1ccc(Cl)cc1C (centres unmarked)", "observed_value": 101.65}
{"molecule": "COc1nn(C(=O)[N-]S(=O)(=O)c2ccccc2OC(F)(F)F)c(=O)n1C.[Na+] [Flucarbazone, Flucarbazone Sodium]", "observed_value": 92.84}
{"molecule": "CCCCCCCC(=O)Oc1c(Br)cc(C#N)cc1Br [Bromoxynil, Bromoxynil Octanoate]", "observed_value": 97.86}

----------
Entries annotated with measured Assay (% w/w)
- procedure_summary: Active ingredient assay and recovery on storage (Table 2)
- Type: physicochemical
- conditions_used: 1 month storage, −10° C.
quantity_measured: Assay (% w/w)

{"compound": "COc1nn(C(=O)[N-]S(=O)(=O)c2ccccc2OC(F)(F)F)c(=O)n1C.[Na+] [Flucarbazone, Flucarbazone Sodium]", "quantity_measured": "Assay (% w/w)", "observed_value": 1.90}
{"compound": "CCCCCCCC(=O)Oc1c(Br)cc(C#N)cc1Br [Bromoxynil, Bromoxynil Octanoate]", "quantity_measured": "Assay (% w/w)", "observed_value": 31.44}
{"compound": "CCCCCCC(C)OC(=O)COc1nc(F)c(Cl)c(N)c1Cl (centres unmarked) [Fluroxypyr, Fluroxypyr Meptyl]", "quantity_measured": "Assay (% w/w)", "observed_value": 11.49}
{"compound": "CCCCC(CC)COC(=O)COc1ccc(Cl)cc1C (centres unmarked) [MCPA]", "quantity_measured": "Assay (% w/w)", "observed_value": 34.65}
{"compound": "CCCCCC(C)OC(=O)COc1ccc(Cl)c2cccnc12 (centres unmarked) [cloquintocet, Cloquintocet Mexyl]", "quantity_measured": "Assay (% w/w)", "observed_value": 0.41}

----------
- procedure_summary: Active ingredient assay on storage, SCB239-12 (Table 3)
- Format: physicochemical
- conditions_used: 3 month storage, 0° C.
In this section we review reported Recovery of active ingredient (% of initial assay) values for a set of molecules.
quantity_measured: Recovery of active ingredient (% of initial assay) (% w/w)

{"molecule": "CCCCC(CC)COC(=O)COc1ccc(Cl)cc1C (centres unmarked) [MCPA]", "observed_value": 100.21}
{"molecule": "CCCCCCC(C)OC(=O)COc1nc(F)c(Cl)c(N)c1Cl (centres unmarked) [Fluroxypyr, Fluroxypyr Meptyl]", "observed_value": 99.21}
{"molecule": "CCCCCCCC(=O)Oc1c(Br)cc(C#N)cc1Br [Bromoxynil, Bromoxynil Octanoate]", "observed_value": 96.31}
{"molecule": "CCCCCC(C)OC(=O)COc1ccc(Cl)c2cccnc12 (centres unmarked) [cloquintocet, Cloquintocet Mexyl]", "observed_value": 100.75}
{"molecule": "COc1nn(C(=O)[N-]S(=O)(=O)c2ccccc2OC(F)(F)F)c(=O)n1C.[Na+] [Flucarbazone, Flucarbazone Sodium]", "observed_value": 99.13}
